Counter-ions that a name gives are not always drawn.
compounds and their reported melting point
recordedMetric: melting point

compound	measured
COc1ccc(C=CC(=O)CCN2CC(C)OC(C)C2)cc1O (centres unmarked) (as salt: hydrochloride) [Compound 36]	194 to 196 °C
O=C(C=Cc1ccc(C(F)(F)F)cc1)CCN1CCC(Cc2ccccc2)CC1 (as salt: hydrochloride) [Compound 20]	175 to 179 °C
COc1ccc(C=CC(=O)CCN2CCC(Cc3ccccc3)CC2)cc1 (as salt: hydrochloride) [Compound 22a]	180 to 184 °C
CCOc1cc(C=CC(=O)CCN2CC(C)OC(C)C2)ccc1O (centres unmarked) (as salt: hydrochloride) [Compound 37]	198 to 201 °C
CCOC(=O)C1CCN(CCC(=O)/C=C/c2ccc(Cl)cc2)CC1 (as salt: hydrochloride) [Compound 3]	172 to 174 °C

====

# testedOn: polymorphonuclear leucocytes from rat pleural cavity
# procedureText: release of β-glucuronidase by polymorphonuclear leucocytes from rat pleural cavity in vitro (PAF as irritant)
# Format: cell-based
# conditionInfo: rat polymorphonuclear leucocytes
# Protocol: 1% carrageenan was injected into the right pleural cavity of Wistar rat to induce polymorphonuclear leucocytes. The cells was suspended in Dulbecoo's buffer at the concentration of 2.5×10^6 cells·ml^1. The fluid containing the compound or solvent and 250 μl of cells suspension were added in test tube and incubated in 37° C. waterbath for 15 min. […] 150 μl of NaOH (0.3 mol·L^−1) was added in each well to cease the reaction and the optical density was read at 550 nm.
pIC50: −log10 of the molar value.

compound	testedOn	pIC50
CCOC(=O)C1CCCN(CCC(=O)C=Cc2ccc(Cl)cc2Cl)C1.Cl (stereo not shown) [Compound 16, hydrochloride]	polymorphonuclear leucocytes from rat pleural cavity	7.65

====

molecules and their reported IC50
# Tested on: polymorphonuclear leucocytes from rat pleural cavity
# procedureText: release of β-glucuronidase by polymorphonuclear leucocytes from rat pleural cavity in vitro (PAF as irritant)
# Assay type: cell-based
# conditionInfo: Leucocyte; rat polymorphonuclear leucocytes
# Description: 1% carrageenan was injected into the right pleural cavity of Wistar rat to induce polymorphonuclear leucocytes. The cells was suspended in Dulbecoo's buffer at the concentration of 2.5×10^6 cells·ml^1. The fluid containing the compound or solvent and 250 μl of cells suspension were added in test tube and incubated in 37° C. waterbath for 15 min. […] 150 μl of NaOH (0.3 mol·L^−1) was added in each well to cease the reaction and the optical density was read at 550 nm.
Counter-ions that a name gives are not always drawn.

molecule	IC50 (nM)
CCOc1cc(C=CC(=O)CCN2CC(C)OC(C)C2)ccc1O (centres unmarked) [Compound 37, hydrochloride]	1.23
CCOC(=O)C1CCN(CCC(=O)/C=C/c2ccc(Cl)cc2)CC1 [Compound 3, hydrochloride]	0.226
COc1ccc(C=CC(=O)CCN2CCC(Cc3ccccc3)CC2)cc1 [Compound 22a, hydrochloride]	562
COc1ccc(C=CC(=O)CCN2CC(C)OC(C)C2)cc1O (centres unmarked) [Compound 36, hydrochloride]	0.555
O=C(C=Cc1ccc(C(F)(F)F)cc1)CCN1CCC(Cc2ccccc2)CC1 [Compound 20, hydrochloride]	308

====

compounds and their reported Inhibition (%) of β-glucuronidase release
# Test system: polymorphonuclear leucocytes from rat pleural cavity
# procedureText: release of β-glucuronidase by polymorphonuclear leucocytes from rat pleural cavity in vitro (PAF as irritant)
# Format: cell-based
# conditionInfo: Dose 1 × 10^−4 mol · L^−1; Irritant 2 × 10^−7 mol · L^−1
recordedMetric: Inhibition (%) of β-glucuronidase release

compound	measured
Cl.O=C(C=Cc1ccc2c(c1)OCO2)CCN1CCN(Cc2ccccc2)CC1 [Compound 51]	55.1
CCOC(=O)N1CCN(CCC(=O)C=Cc2ccc3c(c2)OCO3)CC1.Cl [Compound 32]	46.1
CN1CCN(CCC(=O)C=Cc2ccc3c(c2)OCO3)CC1.Cl [Compound 52]	31.2
CCOC(=O)N1CCN(CCC(=O)C=Cc2cc(OC)c(OC)c(OC)c2)CC1.Cl [Compound 28]	21.8

====

# Test system: polymorphonuclear leucocytes from rat pleural cavity
# procedureText: release of β-glucuronidase by polymorphonuclear leucocytes from rat pleural cavity in vitro (PAF as irritant)
# Type: cell-based
# conditionInfo: Dose 1 × 10^−5 mol · L^−1; Irritant 1 × 10^−6 mol · L^−1
molecules and their reported Inhibition (%) of β-glucuronidase release
recordedMetric: Inhibition (%) of β-glucuronidase release

molecule	testedOn	measured
CCOC(=O)C1CCCN(CCC(=O)C=Cc2ccc(OC)c(O)c2)C1.Cl (stereo not drawn)	polymorphonuclear leucocytes from rat pleural cavity	36.65
CCOC(=O)N1CCN(CCC(=O)C=Cc2ccc(Br)cc2)CC1.Cl	polymorphonuclear leucocytes from rat pleural cavity	23.54
CCCOc1ccc(C=CC(=O)CCN2CCC(Cc3ccccc3)CC2)cc1.Cl [Compound 22b]	polymorphonuclear leucocytes from rat pleural cavity	41.79
COc1ccc(C=CC(=O)CCN2CC(C)OC(C)C2)cc1.Cl (stereo not drawn) [Compound 39c]	polymorphonuclear leucocytes from rat pleural cavity	28.66
CCOc1cc(C=CC(=O)CCN2CCN(Cc3ccc4c(c3)OCO4)CC2)ccc1OC.Cl	polymorphonuclear leucocytes from rat pleural cavity	27.24
CC1CN(CCC(=O)C=Cc2ccc(Br)cc2)CC(C)O1.Cl (stereo not drawn) [Compound 39b]	polymorphonuclear leucocytes from rat pleural cavity	40.48

====

compounds and their reported pIC50
# System: rat neutrophils
# procedureText: chemotaxis of rat neutrophils in vitro
# Assay type: cell-based
# conditionInfo: Neutrophil, 4 hr, read-out: IC50, inhibition of chemotaxis
pIC50: −log10 of the molar value. Counter-ions that a name gives are not always drawn.

compound	pIC50
COc1ccc(C=CC(=O)CCN2CCC(Cc3ccccc3)CC2)cc1 [Compound 22a, hydrochloride]	8.39
O=C(C=Cc1ccc(C(F)(F)F)cc1)CCN1CCC(Cc2ccccc2)CC1 [Compound 20, hydrochloride]	6.47

====

# System: polymorphonuclear leucocytes from rat pleural cavity
# procedureText: release of β-glucuronidase by polymorphonuclear leucocytes from rat pleural cavity in vitro (PAF as irritant)
# Assay type: cell-based
# conditionInfo: Dose 1 × 10^−5 mol · L^−1; Irritant 1 × 10^−6 mol · L^−1
compounds and their reported Inhibition (%) of β-glucuronidase release
recordedMetric: Inhibition (%) of β-glucuronidase release

molecularString	measured
Cl.O=C(C=Cc1ccc(F)cc1)CCN1CCC(Cc2ccccc2)CC1	37.64
CCOC(=O)C1CCN(CCC(=O)C=Cc2cc(OC)c(OC)c(OC)c2)CC1.Cl	39.53
COc1ccc(C=CC(=O)CCN2CCN(Cc3ccccc3)CC2)cc1.Cl	43.19
CCOC(=O)C1CCN(CCC(=O)C=Cc2ccc(OCC)c(OC)c2)CC1.Cl	45.34
CCCCOc1ccc(C=CC(=O)CCN2CCC(Cc3ccccc3)CC2)cc1.Cl	69.00

====

# Tested on: cutaneous vascular permeability in mice induced by PAF
# procedureText: increase of cutaneous vascular permeability in mice induced by PAF
# Format: in vivo, mouse
# conditionInfo: orally, 50 mg·kg^−1, Kunming mice
Where a name gives a salt, the structure may show the parent alone.
compounds and their reported Inhibition (%) of increase of cutaneous vascular permeability
recordedMetric: Inhibition (%) of increase of cutaneous vascular permeability

compound	measured
CCOC(=O)C1CCN(CCC(=O)/C=C/c2ccc(Cl)cc2)CC1 [Compound 3, hydrochloride]	53.23%
COc1ccc(C=CC(=O)CCN2CCC(Cc3ccccc3)CC2)cc1 [Compound 22a, hydrochloride]	51.14%
O=C(C=Cc1ccc(C(F)(F)F)cc1)CCN1CCC(Cc2ccccc2)CC1 [Compound 20, hydrochloride]	55.78%
COc1ccc(C=CC(=O)CCN2CC(C)OC(C)C2)cc1O (stereo not drawn) [Compound 36, hydrochloride]	33.50%
CCOC(=O)C1CCCN(CCC(=O)C=Cc2ccc(Cl)cc2Cl)C1.Cl (stereo not drawn) [Compound 16]	48.09%
CCOc1cc(C=CC(=O)CCN2CC(C)OC(C)C2)ccc1O (stereo not drawn) [Compound 37, hydrochloride]	38.70%

====

# System: polymorphonuclear leucocytes from rat pleural cavity
# procedureText: release of β-glucuronidase by polymorphonuclear leucocytes from rat pleural cavity in vitro (PAF as irritant)
# Assay type: cell-based
# conditionInfo: Dose 1 × 10^−5 mol · L^−1; Irritant 1 × 10^−7 mol · L^−1
recordedMetric: Inhibition (%) of β-glucuronidase release

molecule	measured
CCOC(=O)C1CCCN(CCC(=O)C=Cc2ccc(OC)c(OCC)c2)C1.Cl (stereo not shown) [Compound 12]	181.48
CCOC(=O)N1CCN(CCC(=O)C=Cc2ccc(O)cc2)CC1.Cl [Compound 24]	120.85
CCOC(=O)C1CCN(CCC(=O)C=Cc2ccc(O)c(OC)c2)CC1.Cl [Compound 8]	158.42
CCOC(=O)C1CCCN(CCC(=O)C=Cc2ccc3c(c2)OCO3)C1.Cl (stereo not shown) [Compound 15]	141.17

====

molecules and their reported pKi
# testedOn: PAF receptors of macrophages from mouse peritoneal cavity (Mus musculus, UniProt Q62035)
# Construct: The cells in peritoneal cavity were collected after injection for 3-4 days; endogenous in cells; host or cells: adherent peritoneal macrophages of C57BL/6 mice (primary)
# Sequence (Q62035 whole entry): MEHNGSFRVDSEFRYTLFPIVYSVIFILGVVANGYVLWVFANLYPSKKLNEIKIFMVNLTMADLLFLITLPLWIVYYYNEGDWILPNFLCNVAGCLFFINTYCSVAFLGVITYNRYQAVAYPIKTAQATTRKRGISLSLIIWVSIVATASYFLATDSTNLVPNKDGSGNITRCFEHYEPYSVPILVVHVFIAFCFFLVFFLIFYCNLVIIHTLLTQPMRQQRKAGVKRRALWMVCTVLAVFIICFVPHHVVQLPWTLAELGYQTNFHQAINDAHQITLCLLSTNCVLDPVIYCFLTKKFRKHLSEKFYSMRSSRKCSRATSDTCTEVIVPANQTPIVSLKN
# procedureText: competitive binding of [3H]-PAF to its receptors of macrophages from mouse peritoneal cavity
# conditionInfo: 4° C, 150 min, read-out: Ki, competition with [3H]-PAF binding
pKi: −log10 of the molar value. Where a name gives a salt, the structure may show the parent alone.
recordedMetric: pKi

molecule	testedOn	recordedMetric	measured
CCOc1cc(C=CC(=O)CCN2CC(C)OC(C)C2)ccc1O (stereo not drawn) [Compound 37, hydrochloride]	PAF receptors of macrophages from mouse peritoneal cavity (Mus musculus, UniProt Q62035)	pKi	4.17
COc1ccc(C=CC(=O)CCN2CC(C)OC(C)C2)cc1O (stereo not drawn) [Compound 36, hydrochloride]	PAF receptors of macrophages from mouse peritoneal cavity (Mus musculus, UniProt Q62035)	pKi	4.32
CCOC(=O)C1CCN(CCC(=O)/C=C/c2ccc(Cl)cc2)CC1 [Compound 3, hydrochloride]	PAF receptors of macrophages from mouse peritoneal cavity (Mus musculus, UniProt Q62035)	pKi	5.36
